target-system: IN-LEDGF/p75 interaction (Human immunodeficiency virus type 1 group M subtype B, UniProt P12497)
assay-procedure: biochemical
stated-conditions: IC50 on IN-LEDGF interaction inhibition, LEDGF competition, increased value, highest LEDGF/p75 competing concentration (range 7.5 nM to 480 nM)
measured-metric: pIC50
To interpret pIC50, take it as minus log10 of a concentration measured in moles per litre.

Exam item: Record request: pIC50 value, item Cc1nc2c(c(-c3ccc4c(c3)CCCO4)c1C(OC(C)(C)C)C(=O)O)CCCC2 (stereo not shown)
Marked response: 6.17
